For each entry below, report its pIC50 value.
ASSAY_TARGET: hNav1.7 (Homo sapiens (Human), UniProt Q15858)
Sequence (Q15858 other isoform, or with tags, fused parts or gaps): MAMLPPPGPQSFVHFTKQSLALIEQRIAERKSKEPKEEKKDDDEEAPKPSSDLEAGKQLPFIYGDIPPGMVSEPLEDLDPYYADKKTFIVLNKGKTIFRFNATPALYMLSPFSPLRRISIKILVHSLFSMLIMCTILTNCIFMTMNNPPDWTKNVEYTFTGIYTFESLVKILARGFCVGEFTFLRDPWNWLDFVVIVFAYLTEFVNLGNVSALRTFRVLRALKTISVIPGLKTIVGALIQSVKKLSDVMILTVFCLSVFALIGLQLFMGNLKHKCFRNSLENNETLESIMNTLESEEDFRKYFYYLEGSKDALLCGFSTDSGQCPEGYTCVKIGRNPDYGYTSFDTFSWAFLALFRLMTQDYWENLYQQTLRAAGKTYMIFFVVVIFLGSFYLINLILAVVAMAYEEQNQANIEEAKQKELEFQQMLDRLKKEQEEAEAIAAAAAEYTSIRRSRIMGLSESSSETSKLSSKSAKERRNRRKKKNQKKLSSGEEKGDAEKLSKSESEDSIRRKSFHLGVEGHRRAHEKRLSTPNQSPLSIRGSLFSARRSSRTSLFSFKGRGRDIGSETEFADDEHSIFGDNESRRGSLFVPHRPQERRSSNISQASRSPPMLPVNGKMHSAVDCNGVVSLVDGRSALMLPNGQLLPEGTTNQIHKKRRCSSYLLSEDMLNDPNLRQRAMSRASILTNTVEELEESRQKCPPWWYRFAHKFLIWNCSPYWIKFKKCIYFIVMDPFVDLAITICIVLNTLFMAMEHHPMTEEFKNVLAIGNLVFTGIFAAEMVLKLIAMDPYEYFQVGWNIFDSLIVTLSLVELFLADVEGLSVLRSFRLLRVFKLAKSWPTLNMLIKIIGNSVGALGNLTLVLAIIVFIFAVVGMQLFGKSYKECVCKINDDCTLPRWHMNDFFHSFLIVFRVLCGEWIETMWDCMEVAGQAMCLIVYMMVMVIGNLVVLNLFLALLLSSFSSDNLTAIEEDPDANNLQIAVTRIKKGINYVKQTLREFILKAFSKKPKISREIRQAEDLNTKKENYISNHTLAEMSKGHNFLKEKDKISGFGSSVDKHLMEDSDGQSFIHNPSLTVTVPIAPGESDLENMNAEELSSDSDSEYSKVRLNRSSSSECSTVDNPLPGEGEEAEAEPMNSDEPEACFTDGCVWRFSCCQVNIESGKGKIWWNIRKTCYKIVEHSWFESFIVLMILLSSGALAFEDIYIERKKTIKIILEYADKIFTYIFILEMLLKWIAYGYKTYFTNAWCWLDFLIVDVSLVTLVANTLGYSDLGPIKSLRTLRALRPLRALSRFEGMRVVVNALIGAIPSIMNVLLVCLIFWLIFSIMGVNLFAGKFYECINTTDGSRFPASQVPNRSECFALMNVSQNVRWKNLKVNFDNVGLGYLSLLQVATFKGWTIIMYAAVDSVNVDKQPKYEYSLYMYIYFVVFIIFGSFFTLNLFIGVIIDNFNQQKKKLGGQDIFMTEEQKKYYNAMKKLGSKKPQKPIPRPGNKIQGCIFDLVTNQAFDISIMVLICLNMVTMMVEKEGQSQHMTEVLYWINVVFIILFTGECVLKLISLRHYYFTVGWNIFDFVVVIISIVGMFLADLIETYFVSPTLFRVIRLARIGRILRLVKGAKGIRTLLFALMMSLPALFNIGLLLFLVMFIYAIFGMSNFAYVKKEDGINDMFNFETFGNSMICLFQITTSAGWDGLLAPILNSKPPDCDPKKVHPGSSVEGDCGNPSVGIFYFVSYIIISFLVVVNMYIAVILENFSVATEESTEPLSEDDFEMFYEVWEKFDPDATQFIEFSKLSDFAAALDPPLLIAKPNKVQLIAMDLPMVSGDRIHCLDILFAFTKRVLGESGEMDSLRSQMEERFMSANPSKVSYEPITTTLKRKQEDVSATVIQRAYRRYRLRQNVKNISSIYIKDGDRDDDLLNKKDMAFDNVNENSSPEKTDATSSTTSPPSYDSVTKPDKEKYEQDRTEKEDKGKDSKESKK
Sequence (Q07699 19-218 partner): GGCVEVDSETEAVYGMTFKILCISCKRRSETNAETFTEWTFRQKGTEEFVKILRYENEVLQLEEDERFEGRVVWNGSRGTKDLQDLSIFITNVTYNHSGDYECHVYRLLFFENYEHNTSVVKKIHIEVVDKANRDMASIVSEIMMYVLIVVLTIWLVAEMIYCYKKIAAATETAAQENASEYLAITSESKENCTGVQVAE
METHOD_DESCRIPTION: Tritiated sulfonamide competitive binding to membranes from cells expressing hNav1.7 and the β1 subunit;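 further: Filter-bound radioactivity counted by liquid scintillation, nonspecific binding defined with excess unlabelled ligand, IC50 fitted to percent inhibition of specific binding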
SETUP_CONDITIONS: read-out: Ligand Binding Assay; 100 pM [3H]compound, membranes with hNav1.7 and β1 subunit, 18 h, room temperature
Structures can show the parent of a compound that is named as a salt.
Answers are plain numbers, as −log10 of the molar value.

COMPOUND	DATA_VALUE
C[C@H](c1ccc(F)cc1Cl)N1C[C@H](Oc2cc(F)c(C(=O)NS(C)(=O)=O)cc2C2CC2)CC(C)(C)C1 [Example 452, trifluoroacetic acid salt]	7.36

Here are 4 compounds. What values of pIC50 were reported for them?
1. CS(=O)(=O)NC(=O)c1cc(C2CC2)c(OCC2CCN(Cc3ccc(Cl)c(Cl)c3)CC2)cc1F
2. C[C@H](c1cc(Cl)cc(Cl)c1)N1[C@@H]2CC[C@H]1C[C@H](COc1cc(F)c(C(=O)NS(C)(=O)=O)cc1C1CC1)C2 [Example 353, trifluoroacetic acid salt]
3. O=C(NS(=O)(=O)C1CC1)c1cc(C2CC2)c(OCC2CCN(C(c3ccccc3)c3cc(Cl)cc(Cl)c3)CC2)cc1F (stereo not shown) [Example 411, trifluoroacetic acid salt]
4. CCS(=O)(=O)NC(=O)c1cc(C2CC2)c(OCCC2CCN(Cc3cc(Cl)cc(Cl)c3)CC2)cc1F [Example 303, trifluoroacetic acid salt]

Resp:
1: 8.22; 2: 7.96; 3: 9.10; 4: 8.19

Need pIC50 for each of these compounds.
1. O=C(NS(=O)(=O)C1CC1)c1cc(C2CC2)c(CN2CCO[C@H](Cc3ccc(Cl)c(Cl)c3)C2)cc1F
2. CS(=O)(=O)NC(=O)c1cc(C2CC2)c(OCC2CCN(CC(F)(F)F)CC2)cc1F
3. Cc1cc(C)cc(CN2CCC[C@@H](Oc3cc(F)c(C(=O)NS(C)(=O)=O)cc3C3CC3)C2)c1 [Example 436, trifluoroacetic acid salt]
4. CS(=O)(=O)NC(=O)c1cc(C2CC2)c(OCC2CN([C@H](c3ccccc3)c3cc(Cl)cc(Cl)c3)C2)cc1F
5. CC(c1cc(Cl)cc(Cl)c1F)N1CCC(COc2cc(F)c(C(=O)NS(C)(=O)=O)cc2C2CC2)CC1 (stereo in doubt)
6. CS(=O)(=O)NC(=O)c1cc(C2CC2)c(O[C@@H]2CCCN(Cc3cc(Cl)cc(Cl)c3)C2)cc1F
7. CS(=O)(=O)NC(=O)c1cc(C2CC2)c(O[C@H]2CCCN(Cc3ccc(F)cc3Cl)C2)cc1F
8. O=C(NS(=O)(=O)C1CC1)c1cc(C2CC2)c(OCC2CCN(S(=O)(=O)c3ccc(C(F)(F)F)cc3Cl)CC2)cc1F

Resp:
[8.30, 7.11, 8.27, 8.59, 8.80, 9.52, 6.97, 8.00]

This collection of values is drawn from patent US9546164B2.
